PROTOCOL_SUMMARY: Plasma concentration in Plasmodium berghei infected mouse at 30 mg/kg, po administered as single dose after 24 hrs
Type: ADME, organism-based
QUANTITY_NAME: concentration at 24 h

> print(dat)
                                   molecule          quantity.name  observed.result
1  c1cc(C2CCC3(CC2)OOC2(OO3)C3CC4CC(C3)CC2C4)ccc1CN1CCOCC1 (stereo unspecified)  concentration at 24 h      > 100 ng/mL

* * *

PROTOCOL_SUMMARY: Solubility in pH 5 FeSSIF after 4 hrs by HPLC analysis
Assay type: physicochemical
ASSAY_SETUP: FeSSIF, pH 5
QUANTITY_NAME: solubility at 4 h

> print(dat)
                                   compound  observed.result
1  CS(=O)(=O)O.c1cc(C2CCC3(CC2)OOC2(O3)C3CC4CC(C3)CC2C4)ccc1OCCN1CCOCC1 (stereo unspecified)     > 1500 µg/mL

* * *

PROTOCOL_SUMMARY: Cmax in humanized NOD.Cg-Prkdcscid Il2rgtm1Wjl/SzJ mouse infected with Plasmodium falciparum Pf3D70087/N9 at 5 mg/kg, po administered as single dose after 0.25 to 23 hrs by LC-MS/MS analysis
Format: ADME, organism-based
Design: dose 5 mg/kg, route oral
ASSAY_SETUP: in vivo
QUANTITY_NAME: Cmax

> print(dat)
                                   compound  quantity.name  observed.result
1  c1cc(C2CCC3(CC2)OOC2(OO3)C3CC4CC(C3)CC2C4)ccc1CN1CCOCC1 (stereo unspecified)           Cmax        109 ng/mL

* * *

PROTOCOL_SUMMARY: Drug degradation in mouse liver microsomes assessed as compound half life at 5 uM by UPLC-MS method
Type: ADME, microsome
QUANTITY_NAME: half-life at 5 µM

> print(dat)
                                   compound  observed.result
1  c1cc(C2CCC3(CC2)OOC2(OO3)C3CC4CC(C3)CC2C4)ccc1CN1CCOCC1 (stereo unspecified)           87 min

* * *

PROTOCOL_SUMMARY: Drug degradation in rat liver microsomes assessed as compound half life at 5 uM by UPLC-MS method
Assay type: ADME, microsome
QUANTITY_NAME: half-life at 5 µM (min)

> print(dat)
                                   compound  unit.abbreviation  observed.result
1  c1cc(C2CCC3(CC2)OOC2(OO3)C3CC4CC(C3)CC2C4)ccc1CN1CCOCC1 (stereo unspecified)                min               20

* * *

Recorded half-life, one value per entry.
PROTOCOL_SUMMARY: Half life in Sprague-Dawley rat at 10 mg/kg, po
Type: ADME, organism-based
ASSAY_SETUP: in vivo
QUANTITY_NAME: half-life (h)

> print(dat)
                                   compound  quantity.name  observed.result
1  CN1CCN(C2CCN(C(=O)CC3CCC4(CC3)OOC3(OO4)C4CC5CC(C4)CC3C5)CC2)CC1 (configuration not stated)      half-life              3.5
2  c1cc(C2CCC3(CC2)OOC2(OO3)C3CC4CC(C3)CC2C4)ccc1CN1CCOCC1 (configuration not stated)      half-life               17
